B1: RAD51 (parent)
chain: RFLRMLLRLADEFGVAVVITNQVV

Variants of: B1
Assay: protein stability index of a GFP-peptide fusion (GPS, HEK-293T) (PSI 1-6); higher = more stable;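 further: lentivirally expressed fusions sorted by FACS into six bins by GFP to DsRed ratio, PSI derived from sequencing read proportions per bin multiplied by bin number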
Particulars: c terminus: a fixed tail appended
Outcome Measure: protein stability index
// print number alone

# example entries with known answers
N21P    1.7
T20M    1.44
A16L    2.2
L3R    1.17
A10C    1.79

Quote protein stability index reported for R1M please. 2.43

Quote protein stability index reported for L6A please. 1.91

Quote protein stability index reported for R1T please. 1.37

Quote protein stability index reported for F2H please. 1.78

Quote protein stability index reported for L3S please. 3.09

Quote protein stability index reported for V17R please. 1.52

Quote protein stability index reported for V23T please. 1.51

Quote protein stability index reported for L7W please. 1.94

Quote protein stability index reported for F13N please. 1.26

Quote protein stability index reported for M5Y please. 2.57

Quote protein stability index reported for A10P please. 2.33

Quote protein stability index reported for R4N please. 3.36

Quote protein stability index reported for F2Q please. 2.22

Quote protein stability index reported for I19C please. 2

Quote protein stability index reported for E12I please. 3.64

Quote protein stability index reported for V18K please. 3.09

Quote protein stability index reported for M5Q please. 2.11
